# TARGET_OR_TEST_SYSTEM: human ether-à-go-go-related gene (hERG) potassium channel (human, UniProt Q12809)
# Sequence (Q12809 whole entry, looked up): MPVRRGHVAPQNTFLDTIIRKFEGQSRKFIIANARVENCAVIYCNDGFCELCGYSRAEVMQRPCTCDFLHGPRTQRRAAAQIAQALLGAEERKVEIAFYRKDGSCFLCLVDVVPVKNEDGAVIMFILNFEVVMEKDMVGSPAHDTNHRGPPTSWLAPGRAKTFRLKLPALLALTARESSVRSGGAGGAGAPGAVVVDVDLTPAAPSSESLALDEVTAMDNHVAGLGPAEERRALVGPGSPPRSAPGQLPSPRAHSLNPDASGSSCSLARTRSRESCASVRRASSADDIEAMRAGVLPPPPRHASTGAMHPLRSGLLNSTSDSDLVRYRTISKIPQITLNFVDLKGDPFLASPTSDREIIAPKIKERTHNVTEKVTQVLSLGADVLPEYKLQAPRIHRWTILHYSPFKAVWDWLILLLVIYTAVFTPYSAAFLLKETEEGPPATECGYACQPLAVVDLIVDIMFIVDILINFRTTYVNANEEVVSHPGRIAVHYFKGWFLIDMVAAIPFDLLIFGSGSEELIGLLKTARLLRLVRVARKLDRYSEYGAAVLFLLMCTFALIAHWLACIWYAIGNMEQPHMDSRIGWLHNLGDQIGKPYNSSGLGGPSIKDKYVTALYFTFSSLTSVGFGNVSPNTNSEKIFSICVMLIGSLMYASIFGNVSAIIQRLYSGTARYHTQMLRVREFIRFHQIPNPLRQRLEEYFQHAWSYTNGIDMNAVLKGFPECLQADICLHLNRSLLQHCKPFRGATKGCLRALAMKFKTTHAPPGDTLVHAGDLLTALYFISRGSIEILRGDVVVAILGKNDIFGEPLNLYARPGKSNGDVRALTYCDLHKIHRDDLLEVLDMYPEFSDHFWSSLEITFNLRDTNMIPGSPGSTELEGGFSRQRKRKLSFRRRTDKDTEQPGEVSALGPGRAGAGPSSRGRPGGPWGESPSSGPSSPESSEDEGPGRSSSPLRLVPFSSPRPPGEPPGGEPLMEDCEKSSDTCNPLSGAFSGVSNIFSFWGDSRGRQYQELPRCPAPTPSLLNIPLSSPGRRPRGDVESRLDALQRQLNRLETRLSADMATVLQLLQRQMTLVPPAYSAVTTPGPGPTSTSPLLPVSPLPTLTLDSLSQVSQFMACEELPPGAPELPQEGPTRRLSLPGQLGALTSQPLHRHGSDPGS
# PROTOCOL_DESCRIPTION: primary screen, population patch clamp on CHO cells stably expressing hERG; higher = less effect of the substance
Among all 310,000 compounds or so, about 14,000 (4.5%) showed an effect of 50% or more. Effects have a minus sign here. The full list was thinned out, with strong results kept by preference.
Please use label 1 whenever hERG current change (%, negative = inhibition) at 10uM is not below -20%, and label 0 whenever it is.

Cc1ccc(CNC(=O)CNS(=O)(=O)c2ccc3nc(C)sc3c2)cc1; label 0
Cc1nc2ccc(S(=O)(=O)NCC(=O)NCc3ccc(Cl)cc3)cc2s1; label 1
CCn1c(CNC(=O)c2ccco2)nnc1SCC(=O)Nc1cc(C)c(C)cc1Br; label 1

Please check the record CCNS(=O)(=O)c1ccc(CCC(=O)NCc2ccncc2)cc1 and state if its hERG current change (%, negative = inhibition) at 10uM is at or above -20%.
label 1

Please check the record Cc1ccccc1-c1nc(C#N)c(NCc2ccco2)o1 and state if its hERG current change (%, negative = inhibition) at 10uM is at or above -20%.
label 0

Please check the record Cc1ccc(-c2nc(C#N)c(NCc3ccco3)o2)cc1 and state if its hERG current change (%, negative = inhibition) at 10uM is at or above -20%.
label 1

Please check the record O=C(NCC(c1cccs1)N1CCOCC1)c1cc(-c2ccccn2)nc2ccccc12 (stereo not shown) and state if its hERG current change (%, negative = inhibition) at 10uM is at or above -20%.
label 0

Please check the record CC(C)c1ccccc1OCC(=O)NCC(c1cccs1)N1CCOCC1 (stereo not shown) and state if its hERG current change (%, negative = inhibition) at 10uM is at or above -20%.
label 0

Please check the record Cc1ccc(CCNC(=O)CNS(=O)(=O)c2ccc3nc(C)sc3c2)cc1 and state if its hERG current change (%, negative = inhibition) at 10uM is at or above -20%.
label 1

###

# TARGET_OR_TEST_SYSTEM: human ether-à-go-go-related gene (hERG) potassium channel (human, UniProt Q12809)
# PROTOCOL_DESCRIPTION: primary screen, population patch clamp on CHO cells stably expressing hERG; higher = less effect of the substance
Out of some 310,000 compounds screened, about 14,000 (4.5%) showed an effect of 50% or more. The effect is printed as a negative number. The sample as a whole holds a higher share of strong results than the screen did.
Recorded measurements of hERG current change (%, negative = inhibition) at 10uM, one per entry
Answer in %, number only, no unit symbol.

// worked examples, hERG current change (%, negative = inhibition) at 10uM included
Fc1ccc(-c2c[nH]c(=S)n2Cc2ccccc2)cc1; -38
CCOc1ccc(N2CC(C(=O)N3CCCCCC3)CC2=O)cc1 (stereo not shown); -7.34
CCOC(=O)CNC(=O)N(CCOC)CC1CCCN(C2Cc3ccccc3C2)C1 (stereo not shown); -28.5

Turning now to a further compound:
What measured hERG current change (%, negative = inhibition) at 10uM goes with Cc1cc(C)nc(/N=C2\NC(=O)CC(C(=O)O)N2c2ccc(Cl)cc2)n1 (stereo not shown) ?
14.9

###

# TARGET_OR_TEST_SYSTEM: human ether-à-go-go-related gene (hERG) potassium channel (human)
# PROTOCOL_DESCRIPTION: primary screen, population patch clamp on CHO cells stably expressing hERG; higher = less effect of the substance
About 14,000 (4.5%) of roughly 310,000 compounds showed an effect of 50% or more. The effect is printed as a negative number. What follows is part of a selection rich in strong results, with near analogues and random picks from the rest.
QUANTITY_NAME: hERG current change (%, negative = inhibition) at 10uM (%)
Answer in %, number only, no unit symbol.

// worked examples, hERG current change (%, negative = inhibition) at 10uM included
OCC1(Cc2ccccc2)CCN(Cc2cnc(-c3cccc4ccccc34)nc2)CC1; 10.8
CCN(CC)CCNc1nc(-n2nc(C)cc2C)nc2sc3c(c12)CC(C)(C)OC3; -55.4
CCOc1ccc(C(=O)N2CCN(c3ccccc3)CC2)cc1; -36.3
CCN1CCN(C(=S)c2ccc(O)cc2)CC1; 11
Cc1cc(C)n(-c2nc(NCCCN(C)C)c3c4c(sc3n2)COC(C)(C)C4)n1; -14.1

What measured hERG current change (%, negative = inhibition) at 10uM goes with CCOc1ccc(C(=O)N2CCCCCC2)cc1 ?
2.03

What measured hERG current change (%, negative = inhibition) at 10uM goes with COc1ccc(CC2(CO)CCN(Cc3cc4ccccc4o3)CC2)cc1 ?
-52.2

What measured hERG current change (%, negative = inhibition) at 10uM goes with NC(=O)NC(CC(=O)NCCc1ccc(S(N)(=O)=O)cc1)c1ccccc1Cl (stereo not drawn) ?
6.81

###

# TARGET_OR_TEST_SYSTEM: human ether-à-go-go-related gene (hERG) potassium channel (human, UniProt Q12809)
# PROTOCOL_DESCRIPTION: primary screen, population patch clamp on CHO cells stably expressing hERG; higher = less effect of the substance
The whole screen tested about 310,000 compounds, of which about 14,000 (4.5%) showed an effect of 50% or more. The effect is printed as a negative number. The sample as a whole holds a higher share of strong results than the screen did.
QUANTITY_NAME: hERG current change (%, negative = inhibition) at 10uM (%)
Answer in %, number only, no unit symbol.

// worked examples, hERG current change (%, negative = inhibition) at 10uM included
Cc1ccc(NC(=S)Nc2c(C)n(C)n(-c3ccccc3)c2=O)cc1Cl; -22.7
O=C(CSc1ccccn1)N1CCN(c2ncc(C(F)(F)F)cc2Cl)CC1; -63.9
COc1ccc(C)cc1NC(=O)C1CCCN(S(=O)(=O)c2ccc3c(c2)CCCN3C(C)=O)C1 (stereo not shown); -2.38
COc1cc(OC)cc(C(=O)OCC(=O)c2cc(C)n(CC3CCCO3)c2C)c1 (stereo not shown); -39
CC1=CC(C)(C)N(C(=O)c2ccccc2)c2ccccc21; -8.02

# query: hERG current change (%, negative = inhibition) at 10uM | item O=C(c1ccc2c(c1)OCCO2)N1CCN(c2ncc(C(F)(F)F)cc2Cl)CC1 | system: human ether-à-go-go-related gene (hERG) potassium channel (human, UniProt Q12809)
-41.3

# query: hERG current change (%, negative = inhibition) at 10uM | item Cc1cc(C(=O)COC(=O)CN(C)S(=O)(=O)c2ccc(Cl)cc2)c(C)n1Cc1cccs1 | system: human ether-à-go-go-related gene (hERG) potassium channel (human, UniProt Q12809)
-5.54

# query: hERG current change (%, negative = inhibition) at 10uM | item COc1cc(OC)c(C(=O)OCC(=O)c2cc(C)n(CC3CCCO3)c2C)cc1OC (stereo not shown) | system: human ether-à-go-go-related gene (hERG) potassium channel (human, UniProt Q12809)
13.3

# query: hERG current change (%, negative = inhibition) at 10uM | item O=C(CSc1ncn[nH]1)Nc1ccc2c(c1)OCCO2 | system: human ether-à-go-go-related gene (hERG) potassium channel (human, UniProt Q12809)
-26.9

# query: hERG current change (%, negative = inhibition) at 10uM | item Cc1ccsc1C(=O)N1CCN(c2ncc(C(F)(F)F)cc2Cl)CC1 | system: human ether-à-go-go-related gene (hERG) potassium channel (human, UniProt Q12809)
-21

###

Recorded measurements of hERG current change (%, negative = inhibition) at 10uM, one per entry
# TARGET_OR_TEST_SYSTEM: human ether-à-go-go-related gene (hERG) potassium channel (human)
# PROTOCOL_DESCRIPTION: primary screen, population patch clamp on CHO cells stably expressing hERG; higher = less effect of the substance
In all, about 310,000 compounds went through this assay and about 14,000 (4.5%) showed an effect of 50% or more. The effect is printed as a negative number. This is one part of a sample in which strong results are shown more often than they occur.
Answer in %, number only, no unit symbol.

Cc1nn(S(=O)(=O)N2CCOCC2)c(C)c1Br; -0.162

# query: hERG current change (%, negative = inhibition) at 10uM | item Cn1c(N)c(S(=O)(=O)N2CCCC2)c(=O)n(C)c1=O | system: human ether-à-go-go-related gene (hERG) potassium channel (human)
26.2

# query: hERG current change (%, negative = inhibition) at 10uM | item COc1nc(NC(C)=O)nc(C)c1Br | system: human ether-à-go-go-related gene (hERG) potassium channel (human);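 further: peak tail current of the secondary pulse compared with the same well before compound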
-1.69

# query: hERG current change (%, negative = inhibition) at 10uM | item COC(=O)c1oc2nc(C)cc(C)c2c1N | system: human ether-à-go-go-related gene (hERG) potassium channel (human);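 further: peak tail current of the secondary pulse compared with the same well before compound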
-4.33

# query: hERG current change (%, negative = inhibition) at 10uM | item CC1CC(C)CN(S(=O)(=O)c2ccc(NC(=S)NC(=O)c3ccccc3)cc2)C1 (stereo not drawn) | system: human ether-à-go-go-related gene (hERG) potassium channel (human);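 further: peak tail current of the secondary pulse compared with the same well before compound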
8.01

# query: hERG current change (%, negative = inhibition) at 10uM | item CCOc1ccc(OCCOC(=O)C2CCN(S(=O)(=O)c3ccc(C)c(C)c3)CC2)cc1 | system: human ether-à-go-go-related gene (hERG) potassium channel (human);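 further: peak tail current of the secondary pulse compared with the same well before compound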
-22.4
